Tested on: gastric lesion
Assay: rat gastric lesion test
Type: in vivo, rats
Settings: 100 μmole/Kg; ratio of activity relative to the parent NSAID; oral gavage, fasted rats, eighteen hours after dosing
Description: The rat gastric lesion test, described by Kitagawa et al, J. Phirmacol. Exp. Ther., 253:1133-1137 (1990), and Al-Ghamdi et al, J. Int. Med. Res., 19:2242 (1991), was used to evaluate the activity of compounds to produce gastric lesion. Male Sprague Dawley rats (Charles River Laboratories, Wilmington, Mass.) weighing 230-250 g were used for the experiments. […] Gastric lesion score was expressed in mm and calculated by summning the length of each lesion.
Structures can show the parent of a compound that is named as a salt.
Relative Activity Gastric Lesion values by entry

Identify the reported Relative Activity Gastric Lesion for the following entry. COc1ccc2c(c1)c(CC(=O)OCCC1(SN=O)CCN(C)CC1)c(C)n2C(=O)c1ccc(Cl)cc1.O=C(O)CC(O)(CC(=O)O)C(=O)O <0.07 (100 μmole/Kg)

Further cases:
Identify the reported Relative Activity Gastric Lesion for the following entry. COc1ccc2cc([C@H](C)C(=O)OCCN(C)CC3(SN=O)CCN(C)CC3)ccc2c1.Cl 0.1 (100 μmole/Kg)

Identify the reported Relative Activity Gastric Lesion for the following entry. COc1ccc2cc([C@H](C)C(=O)OCCC3(SN=O)CCN(C)CC3)ccc2c1.O=C(O)CC(O)(CC(=O)O)C(=O)O 0.1 (100 μmole/Kg)

Identify the reported Relative Activity Gastric Lesion for the following entry. CN(CCSC(=O)Cc1ccccc1Nc1c(Cl)cccc1Cl)CC(C)(C)SN=O.Cl 0.02 (100 μmole/Kg)

Identify the reported Relative Activity Gastric Lesion for the following entry. CN1CCC(CCOC(=O)Cc2ccccc2Nc2c(Cl)cccc2Cl)(SN=O)CC1 [Example 13, citrate] 0.1 (100 μmole/Kg)

###

Test system: gastric lesion
Assay: rat gastric lesion test
Type: in vivo, rats
Details: ratio of activity relative to the parent NSAID; oral gavage, fasted rats, eighteen hours after dosing
Excerpt: The rat gastric lesion test, described by Kitagawa et al, J. Phirmacol. Exp. Ther., 253:1133-1137 (1990), and Al-Ghamdi et al, J. Int. Med. Res., 19:2242 (1991), was used to evaluate the activity of compounds to produce gastric lesion. Male Sprague Dawley rats (Charles River Laboratories, Wilmington, Mass.) weighing 230-250 g were used for the experiments. […] Gastric lesion score was expressed in mm and calculated by summning the length of each lesion.
Quick rule for you: Relative Activity Gastric Lesion at 0.06 or higher means label 1, lower means label 0.

Identify whether the reported Relative Activity Gastric Lesion of the following compound is 0.06 or greater: CC(C)(CN1CCN(CCOC(=O)Cc2ccccc2Nc2c(Cl)cccc2Cl)CC1)SN=O.O=C(O)CC(O)(CC(=O)O)C(=O)O [Example 8] label 0

Identify whether the reported Relative Activity Gastric Lesion of the following compound is 0.06 or greater: CN(CCOC(=O)Cc1ccccc1Nc1c(Cl)cccc1Cl)CC1(SN=O)CCCCC1.Cl [Example 2] label 0

Identify whether the reported Relative Activity Gastric Lesion of the following compound is 0.06 or greater: Cl.O=NSC1(CCOC(=O)Cc2ccccc2Nc2c(Cl)cccc2Cl)CCNCC1 [Example 6] label 0

Identify whether the reported Relative Activity Gastric Lesion of the following compound is 0.06 or greater: CC1(SN=O)CCN(CCOC(=O)Cc2ccccc2Nc2c(Cl)cccc2Cl)CC1.Cl [Example 1] label 1

Now consider the entry below.
Identify whether the reported Relative Activity Gastric Lesion of the following compound is 0.06 or greater: O=C(O)Cc1ccccc1Nc1c(Cl)cccc1Cl [Diclofenac, diclofenac, reference compound] label 1

###

Tested on: carrageenan rat paw edema
Test: rat paw edema test (antiinflammatory activity)
Assay type: in vivo
Conditions: ratio of activity relative to the parent NSAID; oral gavage one hour prior to carrageenan; paw volume three hours later; male Sprague-Dawley rats
Where a name gives a salt, the structure may show the parent alone.
Relative Activity Antiinflammation values by entry
Response field accepts a number only; no unit should be typed.

Known Relative Activity Antiinflammation results, listed for orientation:
Identify the reported Relative Activity Antiinflammation for the following entry. CC(C)(CN1CCN(CCOC(=O)Cc2ccccc2Nc2c(Cl)cccc2Cl)CC1)SN=O.O=C(O)CC(O)(CC(=O)O)C(=O)O [Example 8] 1.4

Identify the reported Relative Activity Antiinflammation for the following entry. O=C(O)Cc1ccccc1Nc1c(Cl)cccc1Cl [Diclofenac, diclofenac, reference compound] 1

Identify the reported Relative Activity Antiinflammation for the following entry. CN(CCOC(=O)Cc1ccccc1Nc1c(Cl)cccc1Cl)CC1(SN=O)CCCCC1.Cl [Example 2] 1.2

Further cases:
Identify the reported Relative Activity Antiinflammation for the following entry. CN1CCC(CCOC(=O)Cc2ccccc2Nc2c(Cl)cccc2Cl)(SN=O)CC1 [Example 13, citrate] 1

Identify the reported Relative Activity Antiinflammation for the following entry. COc1ccc2cc([C@H](C)C(=O)OCCC3(SN=O)CCN(C)CC3)ccc2c1.O=C(O)CC(O)(CC(=O)O)C(=O)O [Example 15] 1

Identify the reported Relative Activity Antiinflammation for the following entry. CC1(SN=O)CCN(CCOC(=O)Cc2ccccc2Nc2c(Cl)cccc2Cl)CC1.Cl [Example 1] 1.2

Identify the reported Relative Activity Antiinflammation for the following entry. CN(CCCOC(=O)Cc1ccccc1Nc1c(Cl)cccc1Cl)CC1(SN=O)CCCCC1 [Example 4] 1.3

Identify the reported Relative Activity Antiinflammation for the following entry. CN(CCSC(=O)Cc1ccccc1Nc1c(Cl)cccc1Cl)CC(C)(C)SN=O.Cl [Example 31] 1

Identify the reported Relative Activity Antiinflammation for the following entry. CN(Cc1ccc(OC(=O)Cc2ccccc2Nc2c(Cl)cccc2Cl)cc1)CC(C)(C)SN=O [Example 33] 1

Identify the reported Relative Activity Antiinflammation for the following entry. COc1ccc2cc([C@H](C)C(=O)OCCN(C)CC3(SN=O)CCN(C)CC3)ccc2c1.Cl [Example 22] 1
